test: Caco-2 cell monolayer membrane transport assay (Papp and recovery); type: in vitro ADME; conditions: human, Caco-2, Caco-2, A-B, Sample-01; read-out: Papp A-B, Sample-01
Observable: Papp A→B (×10⁻⁶ cm/s)

Molecular string: COC(=O)O[C@H]1C[C@H]2OC[C@@]2(OC(C)=O)[C@H]2[C@H](OC(=O)c3ccccc3)[C@]34OC(=O)O[C@H]3[C@H](OC(=O)[C@H](O)[C@@H](NC(=O)N(C)C)c3ccccc3)C(C)=C([C@@H](OC)C(=O)[C@]12C)C4(C)C
Value units: ×10⁻⁶ cm/s
Measurement: 3.78

Molecular string: CO[C@H]1C[C@H]2OC[C@@]2(OC(C)=O)[C@H]2[C@H](OC(=O)c3ccccc3)[C@]34OC(=O)O[C@H]3[C@H](OC(=O)[C@H](O)[C@@H](NC(=O)OC(C)(C)C)c3ccccc3)C(C)=C([C@@H](OC(=O)N(C)C)C(=O)[C@]12C)C4(C)C
Value units: ×10⁻⁶ cm/s
Measurement: 19.5

Molecular string: CO[C@H]1C(=O)[C@]2(C)CC[C@H]3OC[C@@]3(OC(C)=O)[C@H]2[C@H](OC(=O)c2ccccc2)[C@]23OC(=O)O[C@H]2[C@H](OC(=O)[C@H](O)[C@@H](NC(=O)OC(C)(C)C)c2ccccc2)C(C)=C1C3(C)C
Value units: ×10⁻⁶ cm/s
Measurement: 3.24

Molecular string: CO[C@H]1C(=O)[C@@]2(C)[C@H]([C@H](OC(=O)c3ccccc3)[C@]34OC(=O)O[C@H]3[C@H](OC(=O)[C@H](O)[C@@H](NC(=O)OC(C)(C)C)c3ccccc3)C(C)=C1C4(C)C)[C@]1(OC(C)=O)CO[C@@H]1C[C@@H]2O
Value units: ×10⁻⁶ cm/s
Measurement: 1.31
